B1: TRAF3IP2 (parent)
chain: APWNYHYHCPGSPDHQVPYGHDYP

Variants of: B1
Assay: protein stability index of a GFP-peptide fusion (GPS, HEK-293T) (PSI 1-6); higher = more stable;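 note: lentivirally expressed fusions sorted by FACS into six bins by GFP to DsRed ratio, PSI derived from sequencing read proportions per bin multiplied by bin number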
Details: c terminus: a fixed tail appended
So I've got a bunch of variants here, and I need their protein stability index values.
Give bare numbers.

Solved cases below.
> print(dat)
   change  experimental.result
1    D14K                    2
2    Y19W                 1.82
3     H8T                 2.41

Parameters: items (list). Returns: protein stability index for each item.
1. Q16N
2. P24I
3. A1N
4. G11F
5. P13Q

Return:
1. 2.54
2. 1.72
3. 2.32
4. 2.73
5. 2.5

Look at each variant and report its protein stability index.
1. S12R
2. Y23R
3. P13C

Return:
1: 2.47; 2: 2.9; 3: 1.94

Batch lookup, protein stability index per entry.
1. H6S
2. P10K

Return:
[3.2, 2.4]
